meta.source: patent US8450525B2

Tested on: HDAC (Mouse Liver Extract)
Construct: Mouse liver enzyme (10 mg/ml) was diluted 1:6 with HDAC buffer
assay comment: HDAC inhibition assay using Boc-Lys(Ac)-AMC substrate, mouse liver enzyme
Assay type: biochemical
condition description: 10 μM
parameter: HDAC Inhibition % (10 μM) (%)
Expressed in %, but write only the number.

Q. Which HDAC Inhibition % (10 μM) is listed for COc1cccc(/C(=C\c2ccc(C(=O)Nc3ccccc3N)cc2)C(=O)NC2CC2)c1 ?
A. 61.7

Q. Which HDAC Inhibition % (10 μM) is listed for O=C(/C=C/c1ccc(/C=C(/C(=O)Nc2ccccc2)c2ccc(F)cc2)cc1)NO ?
A. 60.2

Q. Which HDAC Inhibition % (10 μM) is listed for Cc1ccc(/C(=C\c2ccc(/C=C/C(=O)Nc3ccccc3N)cc2)C(=O)NC2CC2)cc1 ?
A. 59.5
